- assayed system: PI 3-kinase alpha (Homo sapiens (Human))
- Sequence (P42336 whole entry, looked up): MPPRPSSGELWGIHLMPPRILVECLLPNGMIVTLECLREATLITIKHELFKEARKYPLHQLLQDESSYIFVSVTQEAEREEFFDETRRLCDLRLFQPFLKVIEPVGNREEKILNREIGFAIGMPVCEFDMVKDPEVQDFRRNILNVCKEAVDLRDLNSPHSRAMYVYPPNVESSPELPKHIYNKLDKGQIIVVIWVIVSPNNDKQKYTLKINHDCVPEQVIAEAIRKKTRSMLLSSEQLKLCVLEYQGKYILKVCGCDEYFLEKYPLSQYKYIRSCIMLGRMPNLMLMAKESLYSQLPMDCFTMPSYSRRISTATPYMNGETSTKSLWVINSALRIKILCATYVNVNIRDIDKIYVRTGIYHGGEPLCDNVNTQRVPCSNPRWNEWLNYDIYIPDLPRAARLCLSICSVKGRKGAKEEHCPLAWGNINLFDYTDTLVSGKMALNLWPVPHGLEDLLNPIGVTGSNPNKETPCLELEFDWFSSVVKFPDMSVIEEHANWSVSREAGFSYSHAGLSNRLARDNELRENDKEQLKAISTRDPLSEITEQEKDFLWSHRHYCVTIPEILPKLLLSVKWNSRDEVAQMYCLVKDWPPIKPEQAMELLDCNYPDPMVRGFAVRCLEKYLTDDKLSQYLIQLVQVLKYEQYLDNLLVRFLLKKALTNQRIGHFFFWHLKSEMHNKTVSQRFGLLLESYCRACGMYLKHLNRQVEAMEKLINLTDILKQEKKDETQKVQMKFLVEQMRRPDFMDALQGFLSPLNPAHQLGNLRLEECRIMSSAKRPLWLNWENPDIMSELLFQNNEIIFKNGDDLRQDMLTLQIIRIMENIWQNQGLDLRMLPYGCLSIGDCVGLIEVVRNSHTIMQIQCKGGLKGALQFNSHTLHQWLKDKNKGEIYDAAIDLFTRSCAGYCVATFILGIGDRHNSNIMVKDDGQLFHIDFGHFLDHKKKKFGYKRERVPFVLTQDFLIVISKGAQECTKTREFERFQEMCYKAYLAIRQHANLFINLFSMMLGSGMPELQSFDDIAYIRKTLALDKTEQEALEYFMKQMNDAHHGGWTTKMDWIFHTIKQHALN
- Sequence (P27986 whole entry partner, looked up): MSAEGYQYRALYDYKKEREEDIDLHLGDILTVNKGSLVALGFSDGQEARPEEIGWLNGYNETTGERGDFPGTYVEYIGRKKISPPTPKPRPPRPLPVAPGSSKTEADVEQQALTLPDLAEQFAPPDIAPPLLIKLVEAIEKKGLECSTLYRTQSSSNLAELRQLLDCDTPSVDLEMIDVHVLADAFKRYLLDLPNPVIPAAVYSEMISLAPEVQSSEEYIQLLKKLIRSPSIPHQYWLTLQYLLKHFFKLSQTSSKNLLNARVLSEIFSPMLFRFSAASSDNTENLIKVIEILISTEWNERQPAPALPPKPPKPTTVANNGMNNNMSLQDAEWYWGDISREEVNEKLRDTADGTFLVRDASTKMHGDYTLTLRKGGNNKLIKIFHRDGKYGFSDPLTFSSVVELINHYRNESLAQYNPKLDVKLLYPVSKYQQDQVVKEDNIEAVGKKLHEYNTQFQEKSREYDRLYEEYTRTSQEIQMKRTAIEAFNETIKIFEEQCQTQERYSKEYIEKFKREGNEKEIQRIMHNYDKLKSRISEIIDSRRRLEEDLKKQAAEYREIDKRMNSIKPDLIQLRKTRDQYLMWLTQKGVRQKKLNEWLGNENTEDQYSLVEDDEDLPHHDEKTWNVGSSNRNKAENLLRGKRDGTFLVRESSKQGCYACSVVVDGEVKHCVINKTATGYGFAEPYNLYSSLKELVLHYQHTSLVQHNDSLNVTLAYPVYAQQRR
Structures can show the parent of a compound that is named as a salt.
What pIC50 was measured for each of the following?
Just so you know, pIC50 here is -log10 of the concentration in molar units; reply with that number alone.

Form entry - test system: PI 3-kinase alpha (Homo sapiens (Human)); read-out: pIC50; compound: Cc1ncc(-c2cc(-c3cc(S(=O)(=O)NC4CC5(CC(O)C5)C4)ccc3C)cnc2N)s1 (stereo not shown) [Example 28]
7.30

Form entry - test system: PI 3-kinase alpha (Homo sapiens (Human)); read-out: pIC50; compound: Cc1noc(-c2cc(-c3cc(S(=O)(=O)NCCN)ccc3C)cnc2N)n1 [Example 37.29]
6.04

Form entry - test system: PI 3-kinase alpha (Homo sapiens (Human)); read-out: pIC50; compound: Cc1cc(-c2cc(-c3cc(S(=O)(=O)N[C@H]4CC[C@H](O)CC4)ccc3C)cnc2N)on1 [Example 5.4, hydrochloride]
6.60

Form entry - test system: PI 3-kinase alpha (Homo sapiens (Human)); read-out: pIC50; compound: Cc1ncc(-c2cc(-c3cc(S(=O)(=O)NCCO)ccc3C)cnc2N)s1 [Example 83.5]
6.37
